test system: HepG2; assay: cytotoxicity call (relative viability < 0.9); conditions: 10 µM
The campaign covered roughly 39,000 compounds. About 3,300 (8.5%) were called active. The sample as a whole holds a higher share of actives than the screen did.
Form entry, call: pick from active, inactive

Before answering, review these 5 worked examples.
C[C@@H]1CN([C@H](C)CO)C(=O)CCCn2nncc2CO[C@@H]1CN(C)C(=O)Nc1cccc2ccccc12    inactive
COCC#Cc1cnc2c(c1)C(=O)N([C@H](C)CO)C[C@H](C)[C@H](CN(C)C(=O)c1cnccn1)O2    active
CC1(C)C=Cc2c(c3c(c4c(=O)c(-c5ccc(O)c(O)c5)coc24)OC(C)(C)CC3)O1    active
Nc1cnc(Cl)nc1N    inactive
COCC#Cc1cnc2c(c1)C(=O)N([C@H](C)CO)C[C@@H](C)[C@H](CN(C)S(=O)(=O)c1cn(C)cn1)O2    inactive

Short answer needed: outcome of this test for COc1ccccc1C#Cc1cnc2c(c1)C(=O)N([C@H](C)CO)C[C@@H](C)[C@@H](CN(C)S(=O)(=O)c1cn(C)cn1)O2 ? inactive

// query: COCC#Cc1cnc2c(c1)C(=O)N([C@H](C)CO)C[C@@H](C)[C@@H](CN(C)S(=O)(=O)c1cn(C)cn1)O2 inactive

Also check CC1CCC2(C(=O)O)CCC3(C)C(=CCC4C5(C)CCC(O)C(C)(C)C5CCC43C)C2C1C (stereo not drawn) active

----------
tested on: HepG2; test: cytotoxicity call (relative viability < 0.9); conditions: 10 µM
The whole screen tested about 39,000 compounds, of which about 3,300 (8.5%) were called active. The sample holds actives, similar compounds and a random draw of the others, so the mix is not that of the screen.
Pick one: active, inactive

COc1ccc(NC(=O)Nc2ccc3c(c2)C(=O)N([C@@H](C)CO)C[C@@H](C)[C@@H](CN(C)S(=O)(=O)c2ccc(F)cc2)OCCCC[C@@H](C)O3)cc1    inactive
Cc1ccc2c(N)[nH]nc2n1    inactive
CO[C@H]1CN(C)C(=O)c2ccc(NC(=O)Nc3cccc(Cl)c3)cc2OC[C@H](C)N(C(=O)Nc2c(C)noc2C)C[C@H]1C    inactive
COc1ccc(NC(=O)Nc2ccc3c(c2)C(=O)N([C@H](C)CO)C[C@@H](C)[C@H](CN(C)S(=O)(=O)c2ccc(F)cc2)OCCCC[C@H](C)O3)cc1    active
COc1ccc(NC(=O)Nc2ccc3c(c2)C(=O)N([C@H](C)CO)C[C@H](C)[C@@H](CN(C)S(=O)(=O)c2ccc(F)cc2)OCCCC[C@H](C)O3)cc1    inactive

# outcome recorded in this test, key = COCc1cc(C)nc2n[nH]c(N)c12 active

Follow-up item: Cn1ccnc1C(=O)NCc1cnc2n1CCNCC2 inactive

// next record O=C(C[C@@H]1C[C@H]2c3cc(NS(=O)(=O)c4ccc(F)cc4)ccc3O[C@H]2[C@H](CO)O1)NCCc1ccccc1 inactive

----------
test system: HepG2; assay: cytotoxicity call (relative viability < 0.9); details: 10 µM
The campaign covered roughly 39,000 compounds. About 3,300 (8.5%) were called active. The sample holds actives, similar compounds and a random draw of the others, so the mix is not that of the screen.
Form entry, call: pick from active, inactive

Observe how each entry below is paired with its result.
CCCN(C)C[C@H]1OCCCC[C@@H](C)Oc2ccc(NS(=O)(=O)c3ccc(Cl)cc3)cc2C(=O)N([C@@H](C)CO)C[C@H]1C    active
C[C@H]1CN([C@@H](C)CO)C(=O)c2cc(NC(=O)Cn3cnnn3)ccc2O[C@@H]1CN(C)S(=O)(=O)c1ccc(Cl)cc1    inactive
C[C@@H]1CN([C@H](C)CO)S(=O)(=O)c2ccc(C#CC3(O)CCCC3)cc2O[C@@H]1CN(C)C(=O)c1ccccc1    inactive
C[C@H]1CN([C@@H](C)CO)C(=O)c2cc(C#CC3(O)CCCC3)cnc2O[C@H]1CN(C)S(=O)(=O)c1ccc(F)cc1    inactive
C[C@H]1CN([C@@H](C)CO)C(=O)c2cc(NS(=O)(=O)c3cn(C)cn3)ccc2O[C@@H]1CN(C)S(=O)(=O)c1ccc(Cl)cc1    inactive

For C[C@H]1CN([C@@H](C)CO)C(=O)CCCn2cc(nn2)CO[C@H]1CN(C)Cc1ccc2c(c1)OCCN2C , what call appears in the results of this test? inactive

Next entry: C[C@@H]1CN([C@@H](C)CO)C(=O)Cc2cc(NC(=O)Nc3ccc4c(c3)OCO4)ccc2O[C@H]1CN(C)S(C)(=O)=O inactive

----------
tested on: HepG2; assay: cytotoxicity call (relative viability < 0.9); conditions: 10 µM
Among all 39,000 compounds or so, about 3,300 (8.5%) were called active. Only a selection was taken, and actives are over-represented in it overall.
Classes to choose from: active, inactive

These recorded examples may help you get a feel for the data.
COc1ccc(S(=O)(=O)N(C)C[C@@H]2Oc3ccc(NC(=O)Nc4cccc5ccccc45)cc3C(=O)N([C@H](C)CO)C[C@@H]2C)cc1    inactive
C[C@@H]1CN([C@H](C)CO)C(=O)c2cc(NC(=O)Nc3ccccc3)ccc2O[C@@H](C)CCCCO[C@H]1CN(C)Cc1ccccc1    active
C[C@@H]1CCCCO[C@H](CN(C)Cc2ccccc2)[C@@H](C)CN([C@@H](C)CO)C(=O)c2cc(NC(=O)Nc3ccccc3)ccc2O1    inactive

Just curious, what result did C[C@@H]1CCCCO[C@@H](CN(C)Cc2ccccc2)[C@@H](C)CN([C@H](C)CO)C(=O)c2cc(NC(=O)Nc3ccccc3)ccc2O1 get here? inactive

Now this one: C[C@H](CO)N1C[C@H](C)[C@@H](CN(C)Cc2ccccc2)OCCCC[C@H](C)Oc2ccc(NC(=O)Nc3ccccc3)cc2C1=O inactive

Now consider CCOC(=O)c1c(C)c(Cl)c(O)c(Cl)c1O and answer again. inactive

Same for C[C@@H]1CCCCO[C@@H](CN(C)Cc2ccccc2)[C@H](C)CN([C@H](C)CO)C(=O)c2cc(NC(=O)Nc3ccccc3)ccc2O1 active

----------
system: HepG2; assay: cytotoxicity call (relative viability < 0.9); conditions: 10 µM
The campaign covered roughly 39,000 compounds. About 3,300 (8.5%) were called active. The list comes from a sample in which actives are over-represented; it also holds close analogues and randomly drawn compounds.
ATTRIBUTE MEASURED: cytotoxicity call

Cc1ccc(S(=O)(=O)Nc2ccc3c(c2)C(=O)N([C@H](C)CO)C[C@@H](C)[C@H](CN(C)S(=O)(=O)c2ccc(F)cc2)OCCCC[C@@H](C)O3)cc1    inactive
CC(C)NCC(O)COc1cccc2[nH]ccc12 (configuration not stated)    inactive
Cc1ccc(S(=O)(=O)Nc2ccc3c(c2)C(=O)N([C@H](C)CO)C[C@H](C)[C@H](CN(C)S(=O)(=O)c2ccc(F)cc2)OCCCC[C@H](C)O3)cc1    inactive
Cc1ccc(S(=O)(=O)N(C)C[C@H]2OCCCC[C@H](C)Oc3ccc(NS(=O)(=O)c4ccc(F)cc4)cc3C(=O)N([C@@H](C)CO)C[C@@H]2C)cc1    inactive
C[C@H](CO)N1C[C@H](C)[C@H](CN(C)Cc2ccc(Cl)c(Cl)c2)Oc2c(NS(=O)(=O)c3cccs3)cccc2C1=O    inactive
COc1ccc(CN(C)C[C@H]2Oc3c(NC(=O)c4ccc(-c5nccs5)cc4)cccc3C(=O)N([C@@H](C)CO)C[C@@H]2C)cc1    inactive

Sample C[C@H]1CN([C@@H](C)CO)C(=O)Cc2cc(NC(=O)Cc3cn(C)c4ccccc34)ccc2O[C@@H]1CN(C)Cc1ccc(-c2ccccc2)cc1 — what was its cytotoxicity call? inactive

Item: C=CCc1ccccc1OCC(O)CNC(C)C.Cl (configuration not stated) active

Moving on to the next molecule: COc1ccccc1OCC(O)CN1CCN(CC(=O)Nc2c(C)cccc2C)CC1.Cl.Cl (configuration not stated) inactive

And the next one, CC(C)NCC(O)COc1ccc(COCCOC(C)C)cc1.O=C(O)C=CC(=O)O (configuration not stated) ? inactive

Lookup CC(C)NCC(O)COc1ccc(CC(N)=O)cc1 (configuration not stated) inactive

Entry COc1ccccc1N1CCN(CC(O)COc2cccc3ccccc23)CC1 (configuration not stated) please active

// query: COCCc1ccc(OCC(O)CNC(C)C)cc1.O=C(O)C(O)C(O)C(=O)O (configuration not stated) inactive

----------
test system: HepG2; experiment: cytotoxicity call (relative viability < 0.9); settings: 10 µM
Among all 39,000 compounds or so, about 3,300 (8.5%) were called active. For the sample, actives were picked, then their nearest neighbours and some compounds at random.
Just give me one of these, please: active, inactive

COc1cccc(OC)c1C(=O)NC1C(=O)N2C1SC(C)(C)C2C(=O)[O-].[Na+] (centres undefined)    inactive

Test call for this molecule, please: C[C@H]1CN([C@@H](C)CO)C(=O)c2cc(NS(=O)(=O)c3cn(C)cn3)ccc2O[C@@H]1CN(C)S(C)(=O)=O inactive

// query: COc1ccc(CN(C)C[C@H]2OCCCC[C@@H](C)Oc3ccc(NC(=O)C4CCCCC4)cc3C(=O)N([C@@H](C)CO)C[C@H]2C)cc1 inactive

Query C[C@H](CO)N1C[C@H](C)[C@H](CN(C)S(=O)(=O)c2cn(C)cn2)Oc2ccc(NS(=O)(=O)c3ccc(F)cc3)cc2C1=O next inactive

Could you do the same for C[C@@H]1CN([C@H](C)CO)C(=O)c2cc(NS(=O)(=O)c3cn(C)cn3)ccc2O[C@H]1CN(C)S(=O)(=O)c1cccs1 , please? inactive
